Target: Recombinant human LTC4 synthase (Homo sapiens)
Construct: made in house; host or cells: Pichia pastoris ('Piccia pastoralis' [sic])
Sequence (Q16873 1-150): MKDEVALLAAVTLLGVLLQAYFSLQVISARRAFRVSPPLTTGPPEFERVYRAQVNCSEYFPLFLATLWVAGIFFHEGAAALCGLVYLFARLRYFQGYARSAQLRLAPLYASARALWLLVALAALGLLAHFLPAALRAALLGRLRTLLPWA
Assay: In vitro assay Method B: LTC4 synthase, LTA4 to LTC4, HTRF detection
Assay type: biochemical
Conditions: total concentration of title compound 10 μM, read-out: % inh. of LTC4 synthase
endpoint: inhibition at 10 µM (%)
# output: bare number, implied unit %

Query: For CC(C)Oc1ccc(Oc2ccc3c(c2)c(C(=O)O)c(CC(=O)O)n3-c2ccc(OCc3ccccn3)cc2)cc1 , what is its reported inhibition at 10 µM?
Reply: 98

Query: For O=C(O)Cc1c(C(=O)O)c2cc(Oc3ccc(OC4CC4)cc3)ccc2n1-c1ccc(OC2CCCC2)cc1 , what is its reported inhibition at 10 µM?
Reply: 98

Query: For CC(C)Oc1ccc(Oc2ccc3c(c2)c(C(=O)O)c(CC(=O)O)n3-c2ccc(OCc3ccc(Cl)nc3)cc2)cc1 , what is its reported inhibition at 10 µM?
Reply: 99

Query: For O=C(O)Cc1c(C(=O)O)c2cc(Oc3ccc(OC(F)(F)F)cc3)ccc2n1-c1ccc(OC2CCCC2)cc1 , what is its reported inhibition at 10 µM?
Reply: 100

Query: For O=C(O)Cc1c(C(=O)O)c2cc(Oc3ccc(OC(F)(F)F)cc3)ccc2n1-c1ccc(OC2CCCCC2)cc1 , what is its reported inhibition at 10 µM?
Reply: 99

Query: For CC(C)Oc1ccc(Oc2ccc3c(c2)c(C(=O)O)c(CC(=O)O)n3-c2ccc(OCc3ccc(Cl)cc3)cc2)cc1 , what is its reported inhibition at 10 µM?
Reply: 95

Query: For O=C(O)Cc1c(C(=O)O)c2cc(Oc3ccc(OC4CCCC4)cc3)ccc2n1-c1ccc(OC2CCCC2)cc1 , what is its reported inhibition at 10 µM?
Reply: 97

Query: For O=C(O)Cc1c(C(=O)O)c2cc(Oc3ccc(OC(F)(F)F)cc3)ccc2n1-c1ccc(NCC2CCCCC2)cc1 , what is its reported inhibition at 10 µM?
Reply: 97

Query: For O=C(O)Cc1c(C(=O)O)c2cc(Oc3ccc(OC(F)(F)F)cc3)ccc2n1-c1ccc(NCc2ccc(Cl)nc2)cc1 , what is its reported inhibition at 10 µM?
Reply: 95

Query: For CC(C)Oc1ccc(Oc2ccc3c(c2)c(C(=O)O)c(CC(=O)O)n3-c2ccc(Oc3ccc(Cl)cc3)cc2)cc1 , what is its reported inhibition at 10 µM?
Reply: 96

Query: For O=C(O)Cc1c(C(=O)O)c2cc(Oc3ccc(OC(F)(F)F)cc3)ccc2n1-c1ccc(NCc2cccnc2)cc1 , what is its reported inhibition at 10 µM?
Reply: 100

Query: For O=C(O)Cc1c(C(=O)O)c2cc(Oc3ccc(OC(F)(F)F)cc3)ccc2n1-c1ccc(NC2CCCC2)cc1 , what is its reported inhibition at 10 µM?
Reply: 100

Query: For CC(C)Oc1ccc(Oc2ccc3c(c2)c(C(=O)O)c(CC(=O)O)n3-c2ccc(OC3CCC(C)(C)CC3)cc2)cc1 , what is its reported inhibition at 10 µM?
Reply: 97

Query: For CCCCCCCCNc1ccc(-n2c(CC(=O)O)c(C(=O)O)c3cc(Oc4ccc(OC(F)(F)F)cc4)ccc32)cc1 , what is its reported inhibition at 10 µM?
Reply: 98

Query: For O=C(O)Cc1c(C(=O)O)c2cc(Oc3ccc(OC(F)(F)F)cc3)ccc2n1-c1ccc(Nc2cccc3c2CCCC3)cc1 , what is its reported inhibition at 10 µM?
Reply: 97
